Assign koff to each entry below.
- tested-target: T1, human IL-36R extracellular domain expressed with a C-terminal myc-myc-hexahistidine tag (hIL-36R-MMH) (human, UniProt Q9HB29 20-337)
- T1 construct: also called Human IL-36R-MMH; REGN2105
- T1 sequence (Q9HB29 other isoform, or with tags, fused parts or gaps limits assumed): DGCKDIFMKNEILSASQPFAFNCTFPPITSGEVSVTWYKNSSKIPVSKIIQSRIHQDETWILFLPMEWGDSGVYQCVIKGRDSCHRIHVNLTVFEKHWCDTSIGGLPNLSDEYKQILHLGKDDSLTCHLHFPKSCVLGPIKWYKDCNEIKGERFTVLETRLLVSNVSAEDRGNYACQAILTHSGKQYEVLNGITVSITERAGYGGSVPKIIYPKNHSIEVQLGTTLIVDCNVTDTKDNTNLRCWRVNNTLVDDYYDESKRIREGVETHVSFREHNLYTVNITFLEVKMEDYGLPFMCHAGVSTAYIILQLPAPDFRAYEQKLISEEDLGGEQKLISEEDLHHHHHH
- run-description: SPR Biacore T200, mAb captured on anti-hFc, 25C, PBS-T pH 7.4 running buffer
One number for each entry, in s⁻¹.

Sample answers from the record:
H4H14708P2 (antibody, human IgG4 S228P, kappa, V domains shown, Fully human anti-IL-36R antibody) VH: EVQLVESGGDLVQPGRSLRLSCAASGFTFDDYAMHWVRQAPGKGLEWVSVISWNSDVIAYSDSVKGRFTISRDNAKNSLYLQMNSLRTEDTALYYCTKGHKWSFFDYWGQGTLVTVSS VL: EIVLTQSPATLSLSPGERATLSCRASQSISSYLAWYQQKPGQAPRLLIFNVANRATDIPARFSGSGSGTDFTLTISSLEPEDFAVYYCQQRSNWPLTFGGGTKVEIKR ... 0.000796
H4H14706P2 (antibody, human IgG4 S228P, kappa, V domains shown, Fully human anti-IL-36R antibody) VH: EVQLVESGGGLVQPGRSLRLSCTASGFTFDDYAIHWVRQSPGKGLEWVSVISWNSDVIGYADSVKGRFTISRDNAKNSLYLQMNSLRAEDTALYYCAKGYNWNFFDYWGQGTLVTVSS VL: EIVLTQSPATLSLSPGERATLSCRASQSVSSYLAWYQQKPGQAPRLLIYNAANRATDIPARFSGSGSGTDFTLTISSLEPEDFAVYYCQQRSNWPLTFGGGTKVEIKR ... 0.000616

Could I get koff for every one of these entries?
1. H4H14758P (antibody, human IgG4 S228P, kappa, V domains shown, Fully human anti-IL-36R antibody) VH: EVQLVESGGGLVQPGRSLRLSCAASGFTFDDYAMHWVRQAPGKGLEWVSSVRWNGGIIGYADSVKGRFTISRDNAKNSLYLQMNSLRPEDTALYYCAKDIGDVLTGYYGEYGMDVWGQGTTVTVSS VL: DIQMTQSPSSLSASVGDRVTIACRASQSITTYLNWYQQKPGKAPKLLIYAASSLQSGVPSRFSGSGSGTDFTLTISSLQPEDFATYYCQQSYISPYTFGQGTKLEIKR
2. H4H14757P (antibody, human IgG4 S228P, kappa, V domains shown, Fully human anti-IL-36R antibody) VH: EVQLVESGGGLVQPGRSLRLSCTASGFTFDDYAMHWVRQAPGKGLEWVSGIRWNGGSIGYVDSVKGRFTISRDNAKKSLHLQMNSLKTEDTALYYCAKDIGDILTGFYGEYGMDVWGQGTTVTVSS VL: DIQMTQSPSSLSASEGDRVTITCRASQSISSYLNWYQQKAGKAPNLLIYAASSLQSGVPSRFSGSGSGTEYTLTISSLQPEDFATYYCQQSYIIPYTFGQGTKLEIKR
3. H4H14699P2 (antibody, human IgG4 S228P, kappa, V domains shown, Fully human anti-IL-36R antibody) VH: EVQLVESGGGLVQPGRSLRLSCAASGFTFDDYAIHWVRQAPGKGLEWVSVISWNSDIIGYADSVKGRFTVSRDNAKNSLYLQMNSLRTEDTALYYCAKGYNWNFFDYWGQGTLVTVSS VL: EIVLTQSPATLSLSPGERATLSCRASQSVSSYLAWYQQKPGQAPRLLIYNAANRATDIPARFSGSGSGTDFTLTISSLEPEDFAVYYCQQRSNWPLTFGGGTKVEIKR
4. H4H14700P2 (antibody, human IgG4 S228P, kappa, V domains shown, Fully human anti-IL-36R antibody) VH: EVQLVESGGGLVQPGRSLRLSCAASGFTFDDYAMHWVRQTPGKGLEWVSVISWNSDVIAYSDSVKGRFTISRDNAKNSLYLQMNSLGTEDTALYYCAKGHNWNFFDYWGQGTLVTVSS VL: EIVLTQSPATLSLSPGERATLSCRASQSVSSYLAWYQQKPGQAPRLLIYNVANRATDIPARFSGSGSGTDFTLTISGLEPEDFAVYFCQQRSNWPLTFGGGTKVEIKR
5. H4H14728P (antibody, human IgG4 S228P, kappa, V domains shown, Fully human anti-IL-36R antibody) VH: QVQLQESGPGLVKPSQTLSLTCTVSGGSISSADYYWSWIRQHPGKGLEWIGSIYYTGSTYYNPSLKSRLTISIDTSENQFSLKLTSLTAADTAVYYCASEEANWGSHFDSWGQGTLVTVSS VL: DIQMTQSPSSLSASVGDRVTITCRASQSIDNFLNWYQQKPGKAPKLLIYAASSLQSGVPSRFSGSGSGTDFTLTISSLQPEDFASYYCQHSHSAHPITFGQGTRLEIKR

Reply text:
0.00112
0.000597
0.00193
0.000795
0.000898
